Item-by-item account of IC50
- test.target: NK2 (Homo sapiens)
- assay.overview: Signal transduction (ST), intracellular Ca++ (FLIPR), NK2
- Format: cell-based
- condition: read-out: pIC50 NK2 (converted)
- Experimental: [The procedure below names another target; the source lists this target under the same test.] This test evaluates in vitro functional NK1 antagonistic activity. For the measurements of intracellular Ca^++ concentrations the cells were grown on 96-well (black wall/transparent bottom) plates from Costar for 2 days until they reached confluence. […] The cells were preincubated with a concentration range of antagonists for 20 min at RT and Ca^++-signals after addition of the agonists were measured in a Fluorescence Image Plate Reader (FLIPR from Molecular Devices, Crawley, England). […]
# output: bare number, implied unit µM

**Q:** Given the molecule Cc1nnsc1C(=O)N1CCC(N2CCN(C3CCN(C(=O)c4cc(C(F)(F)F)cc(C(F)(F)F)c4)C(Cc4ccccc4)C3)CC2)C1 (single isomer, unassigned) , write its reported IC50.
**A:** 7.94

***
**Q:** Give the value of IC50 reported for the following: Cn1ccc(C(=O)N2CCC(N3CCN([C@H]4CCN(C(=O)c5cc(C(F)(F)F)cc(C(F)(F)F)c5)[C@H](Cc5ccccc5)C4)CC3)C2)c1 (some centres unmarked)
**A:** 3.16

**Q:** State, in one line, measured IC50 of COc1ccc(S(=O)(=O)N2CCC(N3CCN([C@H]4CCN(C(=O)c5cc(C(F)(F)F)cc(C(F)(F)F)c5)[C@H](Cc5ccccc5)C4)CC3)C2)cc1OC (some centres unmarked)
**A:** 1.58

**Q:** Answer with the recorded IC50 for the molecule listed here: CC(C)(C)C(=O)N1CC[C@@H](N2CCN([C@H]3CCN(C(=O)c4cc(C(F)(F)F)cc(C(F)(F)F)c4)[C@H](Cc4ccc(Cl)c(Cl)c4)C3)CC2)C1
**A:** 2

**Q:** Retrieve IC50 measured for O=C(C(O)c1ccccc1)N1CCC(N2CCN([C@H]3CCN(C(=O)c4cc(C(F)(F)F)cc(C(F)(F)F)c4)[C@H](Cc4ccccc4)C3)CC2)C1 (some centres unmarked) and print it.
**A:** 2.51

###

- test.target: NK2 (Homo sapiens, UniProt P21452)
- Sequence (P21452 1-398): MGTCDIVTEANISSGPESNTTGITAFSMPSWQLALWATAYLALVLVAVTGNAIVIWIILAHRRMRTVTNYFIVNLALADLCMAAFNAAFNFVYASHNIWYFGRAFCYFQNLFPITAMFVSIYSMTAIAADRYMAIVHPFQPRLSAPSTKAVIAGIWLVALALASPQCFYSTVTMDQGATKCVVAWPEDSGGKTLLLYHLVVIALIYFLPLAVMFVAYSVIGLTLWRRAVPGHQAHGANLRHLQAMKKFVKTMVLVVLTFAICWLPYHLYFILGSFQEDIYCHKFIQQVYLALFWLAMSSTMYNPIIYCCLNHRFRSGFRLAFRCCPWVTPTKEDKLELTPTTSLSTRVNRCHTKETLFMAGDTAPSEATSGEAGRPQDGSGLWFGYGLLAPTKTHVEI
- assay.overview: Signal transduction (ST), intracellular Ca++ (FLIPR), NK2
- Type: cell-based
- condition: read-out: pIC50 NK2 (converted)
Parameter IC50: see the listing below.
Give just the number in nM; leave the unit off.

Consider the following illustrative entries.
**Q:** Please report IC50 for the following compound: O=C(c1ccsc1)N1CC[C@@H](N2CCN([C@H]3CCN(C(=O)c4cc(C(F)(F)F)cc(C(F)(F)F)c4)[C@H](Cc4ccc(Cl)c(Cl)c4)C3)CC2)C1
**A:** 1260

**Q:** Identify measured IC50 associated with O=C(C1CC1)N1CC[C@H](N2CCN([C@H]3CCN(C(=O)c4cc(C(F)(F)F)cc(C(F)(F)F)c4)[C@H](Cc4ccc(Cl)c(Cl)c4)C3)CC2)C1
**A:** 1580

**Q:** Identify measured IC50 associated with O=C(c1ccc(O)cc1)N1CCC(N2CCN([C@H]3CCN(C(=O)c4cc(C(F)(F)F)cc(C(F)(F)F)c4)[C@H](Cc4ccccc4)C3)CC2)C1 (some centres unmarked)
**A:** 2000

**Q:** Supply reported IC50 belonging to this compound: O=C(c1cc(C(F)(F)F)cc(C(F)(F)F)c1)N1CC[C@H](N2CCN(C3CCN(S(=O)(=O)c4ccc(CCO)s4)C3)CC2)C[C@H]1Cc1ccccc1 (some centres unmarked)
**A:** 251

Kindly consider the entry below.
**Q:** Report measured IC50; entry is Cn1cccc1C(=O)CN1CCC(N2CCN([C@H]3CCN(C(=O)c4cc(C(F)(F)F)cc(C(F)(F)F)c4)[C@H](Cc4ccccc4)C3)CC2)C1 (some centres unmarked)
**A:** 5010

###

- test.target: NK3 (Homo sapiens)
- Sequence (P29371 whole entry): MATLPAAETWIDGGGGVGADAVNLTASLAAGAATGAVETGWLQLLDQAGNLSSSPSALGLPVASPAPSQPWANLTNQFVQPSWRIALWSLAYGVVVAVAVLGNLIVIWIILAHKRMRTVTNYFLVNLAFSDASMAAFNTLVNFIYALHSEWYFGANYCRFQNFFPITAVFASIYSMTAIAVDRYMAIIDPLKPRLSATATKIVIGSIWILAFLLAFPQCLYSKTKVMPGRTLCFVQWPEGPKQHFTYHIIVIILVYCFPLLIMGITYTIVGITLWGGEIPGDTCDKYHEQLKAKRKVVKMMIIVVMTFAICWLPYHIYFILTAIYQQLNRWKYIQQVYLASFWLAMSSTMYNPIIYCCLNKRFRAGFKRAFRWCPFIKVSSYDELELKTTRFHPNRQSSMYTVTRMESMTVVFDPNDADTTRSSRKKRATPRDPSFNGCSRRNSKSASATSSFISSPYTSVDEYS
- assay.overview: Signal transduction (ST), intracellular Ca++ (FLIPR), NK3
- Type: cell-based
- condition: read-out: pIC50 NK3 (converted)
observed.property: IC50 (nM)
Numbers only; they are read as nM.

**Q:** Identify IC50 associated with the compound CC(C)(C)C(=O)N1CC[C@H](N2CCN([C@H]3CCN(C(=O)c4cc(C(F)(F)F)cc(C(F)(F)F)c4)[C@H](Cc4ccc(Cl)c(Cl)c4)C3)CC2)C1
**A:** 251

**Q:** Give the reported value of IC50 for this record: O=C(C1CCCC1)N1CCC(N2CCN([C@H]3CCN(C(=O)c4cc(C(F)(F)F)cc(C(F)(F)F)c4)[C@H](Cc4ccccc4)C3)CC2)C1 (stereo partly shown)
**A:** 501

**Q:** Specify measured IC50 for O=C(c1cc(C(F)(F)F)cc(C(F)(F)F)c1)N1CCC(N2CCN(C3CCN(S(=O)(=O)c4cc(CCO)cs4)C3)CC2)CC1Cc1ccccc1 (stereo not shown) .
**A:** 398

###

- test.target: UniProtKB P21452
- assay.overview: Signal transduction (ST), intracellular Ca++ (FLIPR), NK2
- Type: cell-based
- condition: read-out: pIC50 NK2 (converted)
observed.property: IC50 (nM)
Kindly answer with a numeric value in nM, unit omitted.

Known results for molecules:
**Q:** Please report IC50 for the following molecule: O=C(c1ccccc1Cl)N1CCC(N2CCN(C3CCN(C(=O)c4cc(C(F)(F)F)cc(C(F)(F)F)c4)C(Cc4ccc(F)cc4)C3)CC2)C1 (stereo not shown)
**A:** 3980

**Q:** Specify reported IC50 for the molecule shown: O=C(C1CC1)N1CCC(N2CCN([C@H]3CCN(C(=O)c4cc(C(F)(F)F)cc(C(F)(F)F)c4)[C@H](Cc4ccccc4)C3)CC2)C1 (stereo partly shown)
**A:** 63.1

**Q:** Give the value of IC50 reported for the following: O=C(c1cc(C(F)(F)F)cc(C(F)(F)F)c1)N1CC[C@H](N2CCN([C@@H]3CCN(S(=O)(=O)c4cccs4)C3)CC2)C[C@H]1Cc1ccc(Cl)c(Cl)c1
**A:** 251

**Q:** For the molecule O=C(c1ccsc1)N1CCC(N2CCN(C3CCN(C(=O)c4cc(C(F)(F)F)cc(C(F)(F)F)c4)C(Cc4ccc(F)c(F)c4)C3)CC2)C1 (single isomer, unassigned) [Compound 257] , give its reported IC50.
**A:** 316

New cases:
**Q:** Read off the recorded IC50 for O=C(c1c(Cl)cccc1Cl)N1CC[C@H](N2CCN([C@H]3CCN(C(=O)c4cc(C(F)(F)F)cc(C(F)(F)F)c4)[C@H](Cc4ccc(Cl)c(Cl)c4)C3)CC2)C1
**A:** 794

**Q:** Identify measured IC50 associated with COc1ccc(NC(=NC#N)N2CCC(N3CCN([C@H]4CCN(C(=O)c5cc(C(F)(F)F)cc(C(F)(F)F)c5)[C@H](Cc5ccccc5)C4)CC3)C2)cc1 (stereo partly shown)
**A:** 5010

**Q:** Indicate its recorded IC50; the molecule in question is O=C(c1sccc1CCOCc1ccccc1)N1CCC(N2CCN([C@H]3CCN(C(=O)c4cc(C(F)(F)F)cc(C(F)(F)F)c4)[C@H](Cc4ccccc4)C3)CC2)C1 (stereo partly shown)
**A:** 1000

**Q:** Look up and state reported IC50 for O=C(c1ccoc1)N1CC[C@H](N2CCN([C@H]3CCN(C(=O)c4cc(C(F)(F)F)cc(C(F)(F)F)c4)[C@H](Cc4ccc(Cl)c(Cl)c4)C3)CC2)C1
**A:** 501

**Q:** Indicate the recorded IC50 value for this molecule: O=C(c1cc(C(F)(F)F)cc(C(F)(F)F)c1)N1CC[C@H](N2CCN(C3CCN(c4cnccn4)C3)CC2)C[C@H]1Cc1ccccc1 (stereo partly shown)
**A:** 6310

**Q:** Assign IC50 to the following record: O=C(c1cc(COCc2ccccc2)cs1)N1CCC(N2CCN([C@H]3CCN(C(=O)c4cc(C(F)(F)F)cc(C(F)(F)F)c4)[C@H](Cc4ccccc4)C3)CC2)C1 (stereo partly shown)
**A:** 6310

**Q:** Report IC50 for O=C(Nc1ccccc1F)N1CCC(N2CCN([C@H]3CCN(C(=O)c4cc(C(F)(F)F)cc(C(F)(F)F)c4)[C@H](Cc4ccccc4)C3)CC2)C1 (stereo partly shown)
**A:** 5010

**Q:** Return value of IC50 for input O=C(c1ccccc1F)N1CCC(N2CCN(C3CCN(C(=O)c4cc(C(F)(F)F)cc(C(F)(F)F)c4)C(Cc4ccc(Cl)c(Cl)c4)C3)CC2)C1 (stereo not shown) , no commentary.
**A:** 2000

**Q:** State its IC50: CC(C)(C)OC(=O)N1CCCCC1C(=O)N1CCC(N2CCN(C3CCN(C(=O)c4cc(C(F)(F)F)cc(C(F)(F)F)c4)C(Cc4ccccc4)C3)CC2)C1 (stereo not shown)
**A:** 794

**Q:** Give reported IC50 value for O=C(c1cc(C(F)(F)F)cc(C(F)(F)F)c1)N1CC[C@H](N2CCN(C3CCN(S(=O)(=O)c4cccc(O)c4)C3)CC2)C[C@H]1Cc1ccccc1 (stereo partly shown)
**A:** 316
